Assignment: determine reported viability, T/C for the given compounds.
system: 885724-159-R-J1-PDC complex spheroid viability; assay: Anticancer human tumor 885724-159-R-J1-PDC patient-derived pancreatic adenocarcinoma cell line growth inhibition [GQUAD]; conditions: second compound 0.1 µM; first compound 3.16 µM; active compounds read low
Record the value in %, omitting the unit from your answer.

Query CCCS(=O)(=O)Nc1ccc(F)c(C(=O)c2c[nH]c3ncc(-c4ccc(Cl)cc4)cc23)c1F + Cc1cnc(CNC(=O)c2c(=O)c3ccc(N4CCCN(C)CC4)nc3n3c2sc2ccccc23)cn1 yields viability, T/C of 128

Data point: O=C(c1cc(Cc2n[nH]c(=O)c3ccccc23)ccc1F)N1CCN(C(=O)C2CC2)CC1 + Cc1cnc(CNC(=O)c2c(=O)c3ccc(N4CCCN(C)CC4)nc3n3c2sc2ccccc23)cn1 ; viability, T/C = 84.6

For C#Cc1c(F)ccc2cc(O)cc(-c3ncc4c(N5CC6CCC(C5)N6)nc(OCC56CCCN5CC(F)C6)nc4c3F)c12 (stereo not drawn) + Cc1[nH]c2ccc(F)cc2c1-c1nc2c3cccnc3c3ncccc3c2[nH]1 the compound record lists viability, T/C as 54.6

---

tested on: 885724-159-R-J1-PDC complex spheroid viability; experiment: Anticancer human tumor 885724-159-R-J1-PDC cell line growth inhibition [GQUAD]; conditions: second compound 10 µM; first compound 0.1 µM; active compounds read low;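 further: spheroids exposed to agents for seven days before readout; percent of vehicle control viability where 100% = DMSO wells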
Exercise: for every item that follows, state its recorded viability, T/C.
Expressed in %, but write only the number.

Data point: O=C(c1cc(Cc2n[nH]c(=O)c3ccccc23)ccc1F)N1CCN(C(=O)C2CC2)CC1 + CN(C)c1ccc(Nc2c3ccc(NC(=O)CCN4CCCC4)cc3nc3cc(NC(=O)CCN4CCCC4)ccc23)cc1 ; viability, T/C = 74.2

Memo: COc1ncnc(C2CC2)c1-c1ncc2cnn(Cc3ccc(-c4nc(C(F)(F)F)cn4C(C)C)cc3)c2n1 + Cc1cnc(CNC(=O)c2c(=O)c3ccc(N4CCCN(C)CC4)nc3n3c2sc2ccccc23)cn1 , reported viability, T/C: 69.5

Sure, the documented viability, T/C for CCCS(=O)(=O)Nc1ccc(F)c(C(=O)c2c[nH]c3ncc(-c4ccc(Cl)cc4)cc23)c1F + CN(C)c1ccc(Nc2c3ccc(NC(=O)CCN4CCCC4)cc3nc3cc(NC(=O)CCN4CCCC4)ccc23)cc1 is 73.1

# compound CC1COCCN1c1cc(C2(O)CC3CCC(C2)O3)c2cnn(-c3ccn[nH]3)c2n1 (stereo not given) + Cc1cnc(CNC(=O)c2c(=O)c3ccc(N4CCCN(C)CC4)nc3n3c2sc2ccccc23)cn1 ; its viability, T/C = 59.2

Quick note, viability, T/C for CC(C)(O)C1CCC(Nc2ccc3ncc(-c4cccc(C(F)(F)F)c4)n3n2)CC1 (stereo not given) + Cc1[nH]c2ccc(F)cc2c1-c1nc2c3cccnc3c3ncccc3c2[nH]1 landed at 59

C#Cc1c(F)ccc2cc(O)cc(-c3ncc4c(N5CC6CCC(C5)N6)nc(OCC56CCCN5CC(F)C6)nc4c3F)c12 (stereo not given) + Cc1[nH]c2ccc(F)cc2c1-c1nc2c3cccnc3c3ncccc3c2[nH]1 yielded viability, T/C of 75.8

What the record says about COc1ccc([C@@H](O)c2cc(-c3ncnc4cc(N5CCOCC5)ccc34)c(F)cc2Cl)nn1 + Cc1[nH]c2ccc(F)cc2c1-c1nc2c3cccnc3c3ncccc3c2[nH]1 : viability, T/C is 75.6

Documented viability, T/C of O=c1[nH]cc(F)c(=O)[nH]1 + CN(C)c1ccc(Nc2c3ccc(NC(=O)CCN4CCCC4)cc3nc3cc(NC(=O)CCN4CCCC4)ccc23)cc1 : 80

Summary for this compound, CC1COCCN1c1cc(C2(S(C)(=N)=O)CC2)nc(-c2ccnc3[nH]ccc23)n1 (stereo not given) + Cc1cnc(CNC(=O)c2c(=O)c3ccc(N4CCCN(C)CC4)nc3n3c2sc2ccccc23)cn1 : viability, T/C is 73.4

The recorded viability, T/C for COc1cc(C2c3cc4c(cc3C(OC3OC5COC(C)OC5C(O)C3O)C3COC(=O)C23)OCO4)cc(OC)c1O (stereo not given) + Cc1[nH]c2ccc(F)cc2c1-c1nc2c3cccnc3c3ncccc3c2[nH]1 is 69.3

Please fill in: viability, T/C reported for CC(=O)O[C@H]1C(=O)[C@@]2(C)[C@H]([C@H](OC(=O)c3ccccc3)[C@]3(O)C[C@H](OC(=O)[C@H](O)[C@@H](NC(=O)c4ccccc4)c4ccccc4)C(C)=C1C3(C)C)[C@]1(OC(C)=O)CO[C@@H]1C[C@@H]2O + CN(C)c1ccc(Nc2c3ccc(NC(=O)CCN4CCCC4)cc3nc3cc(NC(=O)CCN4CCCC4)ccc23)cc1 = 69.6

The reported viability, T/C of the compound COc1ncnc(C2CC2)c1-c1ncc2cnn(Cc3ccc(-c4nc(C(F)(F)F)cn4C(C)C)cc3)c2n1 + Cc1[nH]c2ccc(F)cc2c1-c1nc2c3cccnc3c3ncccc3c2[nH]1 was 66

Briefly, viability, T/C measured for C#Cc1c(F)ccc2cc(O)cc(-c3ncc4c(N5CC6CCC(C5)N6)nc(OCC56CCCN5CC(F)C6)nc4c3F)c12 (stereo not given) + Cc1cnc(CNC(=O)c2c(=O)c3ccc(N4CCCN(C)CC4)nc3n3c2sc2ccccc23)cn1 : 62.7

Just so you know, measured viability, T/C for C=CC(=O)N1CCN(c2nc(=O)n(-c3c(C)ccnc3C(C)C)c3nc(-c4c(O)cccc4F)c(F)cc23)C(C)C1 (stereo not given) + CN(C)c1ccc(Nc2c3ccc(NC(=O)CCN4CCCC4)cc3nc3cc(NC(=O)CCN4CCCC4)ccc23)cc1 came out at 76

The measured viability, T/C associated with CC1COCCN1c1cc(-c2ccnn2C)c2ccnc(-c3ccn[nH]3)c2n1 (stereo not given) + CN(C)c1ccc(Nc2c3ccc(NC(=O)CCN4CCCC4)cc3nc3cc(NC(=O)CCN4CCCC4)ccc23)cc1 reads 72.3

The measured viability, T/C associated with C#Cc1c(F)ccc2cc(O)cc(-c3ncc4c(N5CC6CCC(C5)N6)nc(OCC56CCCN5CC(F)C6)nc4c3F)c12 (stereo not given) + CN(C)c1ccc(Nc2c3ccc(NC(=O)CCN4CCCC4)cc3nc3cc(NC(=O)CCN4CCCC4)ccc23)cc1 reads 68.7

Lab book: viability, T/C of Cc1cccc(N(C)C(=O)C2C(O)CCN2c2nc(C)cc(C(F)(F)F)c2C#N)c1 (stereo not given) + Cc1[nH]c2ccc(F)cc2c1-c1nc2c3cccnc3c3ncccc3c2[nH]1 noted as 68.3

Lab note: measured viability, T/C of O=C(NO)c1cnc(N2CCN(S(=O)(=O)c3ccc4ccccc4c3)CC2)nc1 + Cc1cnc(CNC(=O)c2c(=O)c3ccc(N4CCCN(C)CC4)nc3n3c2sc2ccccc23)cn1 was 58.5

Form field viability, T/C, entry COc1ncnc(C2CC2)c1-c1ncc2cnn(Cc3ccc(-c4nc(C(F)(F)F)cn4C(C)C)cc3)c2n1 + CN(C)c1ccc(Nc2c3ccc(NC(=O)CCN4CCCC4)cc3nc3cc(NC(=O)CCN4CCCC4)ccc23)cc1 : 66.5

For O=C(c1cc(Cc2n[nH]c(=O)c3ccccc23)ccc1F)N1CCN(C(=O)C2CC2)CC1 + Cc1[nH]c2ccc(F)cc2c1-c1nc2c3cccnc3c3ncccc3c2[nH]1 the compound record lists viability, T/C as 70.5
